Target: T1, Csk L-SH2 domain (A73–A178), oxidized form (human, UniProt P41240 73-178, disulfide bond C122–C164)
T1 construct: C-terminal Src kinase (Csk), human, SH2 domain with part of the SH3-SH2 linker, residues A73-A178; intramolecular disulfide bond between C122 and C164; Same polypeptide as m1, differing only in the C122–C164 disulfide bond; also called oxidized SH2; oxidized L-SH2; source: E. coli BL21 (DE3) RIL, purified (chitin beads, intein cleaved with DTT, Mono Q); oxidized by exposure to air for about a …
T1 sequence (looked up): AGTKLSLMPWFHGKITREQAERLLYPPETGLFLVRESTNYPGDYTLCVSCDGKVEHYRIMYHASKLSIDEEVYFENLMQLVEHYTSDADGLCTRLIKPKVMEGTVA
Experiment: other fluorescence titration; intrinsic tryptophan fluorescence of L-SH2 (typically 5 μmol/L) titrated with Cbp peptide; 25 °C, 3 mL of 50 mmol/L Tris-HCl pH 7.5; excitation 288 nm, emission 320 nm
Conditions: both partners purified
Square brackets hold non-standard residues; d marks the D form. Ends that are not written are not given here. pY = N[C@@H](Cc1ccc(OP(=O)(O)O)cc1)C(=O)O
TEST_READOUT: Kd (nM)
API: value field is a number in nM; no unit string.

Asked: If you can, please state the reported Kd value of ISAM[pY]SSVNK (also called Cbp peptide; Cbp-phosphorylated peptide; source: synthetic peptide (GenScript, solid-phase synthesis)) [Cbp phosphopeptide ISAMpYSSVNK] .
Given back: 990
